biological target: Mitogen-activated protein kinase kinase kinase kinase 2 (Homo sapiens); settings: at 1 µM;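 note: reported value is a mean of MAP4K2 inhibition at 1 µM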
Measured inhibition of individual entries

{"record smiles": "COc1ccc2[nH]c3c4[nH]c5ccc(OC)cc5c4c4c(c3c2c1)C(=O)NC4=O", "inhibition": "12.1%"}
{"record smiles": "Fc1cccc(COc2ccc(Nc3ncnc4sc(-c5ccco5)cc34)cc2Cl)c1", "inhibition": "3.87%"}
{"record smiles": "COc1ccc2c(-c3ccnc(Nc4cccc(OC(F)(F)F)c4)n3)cnn2n1", "inhibition": "5.46%"}
{"record smiles": "NS(=O)(=O)c1ccc(N/N=C2\\C(=O)Nc3ccc4ncccc4c32)cc1", "inhibition": "49.8%"}
{"record smiles": "CS(=O)(=O)CCNCc1ccc(-c2ccc3ncnc(Nc4ccc(OCc5ccccc5)c(C(F)(F)F)c4)c3c2)o1", "inhibition": "1.46%"}
{"record smiles": "N#Cc1c(NC(=O)CN2CCOCC2)sc2c1CCCC2", "inhibition": "2.67%"}
{"record smiles": "O=S(=O)(CCNCc1ccc(-c2ccc3ncnc(Nc4ccc(OCc5cccc(F)c5)c(Cl)c4)c3c2)o1)c1ccccc1", "inhibition": "5.59%"}
{"record smiles": "COC(=O)Nc1nc2ccc(S(=O)(=O)c3ccc(NC(=O)Nc4cc(C(F)(F)F)ccc4F)cc3)cc2[nH]1", "inhibition": "1.67%"}
{"record smiles": "FC(F)(F)c1cccc(-c2nn3ncccc3c2-c2ccnc(Nc3ccc4c(c3)OCCO4)n2)c1", "inhibition": "12.2%"}

----------
target: Serine/threonine-protein kinase PAK 3 (Homo sapiens); conditions: at 0.1 µM;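 note: mean percent inhibition of PAK3, measured in a screen of the GSK published kinase inhibitor set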
Measured inhibition of individual entries

{"record smiles": "N#Cc1c(NC(=O)c2ccc(F)cc2)sc2c1CCCC2", "inhibition / %": 1.5}
{"record smiles": "COc1cc(Nc2nccc(Nc3ccc4c(C)n[nH]c4c3)n2)cc(OC)c1OC", "inhibition / %": 2.53}
{"record smiles": "CCn1c(-c2nonc2N)nc2cnc(Oc3cccc(NC(=O)c4ccc(N(C)C)cc4)c3)cc21", "inhibition / %": 1.76}
{"record smiles": "Cc1cccc(Nc2ncc(-c3ccccc3)o2)c1", "inhibition / %": 2.83}
{"record smiles": "CS(=O)(=O)CCNCc1ccc(-c2ccc3ncnc(Nc4ccc(OCc5ccccc5)c(C(F)(F)F)c4)c3c2)o1", "inhibition / %": 4.99}

----------
biological target: RAF proto-oncogene serine/threonine-protein kinase (Homo sapiens) (UniProt P04049); conditions: at 0.1 µM;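 note: values are mean CRAF kinase inhibition from profiling of the GSK Published Kinase Inhibitor Set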
Sequence (P04049 whole entry): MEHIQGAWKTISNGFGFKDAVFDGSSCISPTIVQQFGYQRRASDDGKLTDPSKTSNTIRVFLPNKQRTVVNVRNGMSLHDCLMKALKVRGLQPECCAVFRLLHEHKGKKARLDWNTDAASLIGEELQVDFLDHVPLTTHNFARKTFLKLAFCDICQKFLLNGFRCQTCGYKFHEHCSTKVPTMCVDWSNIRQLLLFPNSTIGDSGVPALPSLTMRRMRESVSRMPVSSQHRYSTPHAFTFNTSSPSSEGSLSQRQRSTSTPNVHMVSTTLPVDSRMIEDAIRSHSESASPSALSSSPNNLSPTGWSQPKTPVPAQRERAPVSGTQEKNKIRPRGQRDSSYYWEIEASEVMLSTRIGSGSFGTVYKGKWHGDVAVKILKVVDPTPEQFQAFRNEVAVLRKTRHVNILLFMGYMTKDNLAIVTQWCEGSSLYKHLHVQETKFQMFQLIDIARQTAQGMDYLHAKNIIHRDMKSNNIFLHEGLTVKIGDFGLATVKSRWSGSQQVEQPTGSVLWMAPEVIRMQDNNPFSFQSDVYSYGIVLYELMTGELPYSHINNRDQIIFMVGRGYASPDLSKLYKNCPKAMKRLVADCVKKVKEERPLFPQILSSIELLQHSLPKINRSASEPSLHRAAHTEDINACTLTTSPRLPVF
attribute measured: inhibition (%)

{"record smiles": "CCNC(=O)O[C@H]1CN[C@H](C#Cc2cc3ncnc(Nc4ccc(OCc5cccc(F)c5)c(Cl)c4)c3s2)C1", "assay result": -0.64}
{"record smiles": "CCN(CC)S(=O)(=O)c1ccc(OC)c(Nc2ncc(-c3ccccc3)o2)c1", "assay result": 0.35}
{"record smiles": "O=C(Nc1n[nH]c2cc(-c3ccc(F)cc3)ccc12)C1CC1", "assay result": 1.6}
{"record smiles": "COc1ccc(CNC(=O)c2ccc(-c3cc(-c4nnc(C)o4)ccc3C)cc2)cc1", "assay result": 1.48}
{"record smiles": "c1ccc(-c2nc3n(c2-c2ccc4c(c2)OCO4)CCC3)nc1", "assay result": -0.19}
{"record smiles": "CN1CCC(n2cnc(-c3ccc(F)cc3)c2-c2ccnc(N)n2)CC1", "assay result": -0.57}
{"record smiles": "Fc1ccc(-c2cc(-c3c[nH]nc3-c3ccccn3)ccn2)cc1", "assay result": 0.68}
{"record smiles": "COc1cc2c(cc1Nc1nc(Nc3ccsc3C(N)=O)c3cc[nH]c3n1)N(C(=O)CN(C)C)CCC2(C)C", "assay result": 1.55}
{"record smiles": "COc1cccc(-c2c[nH]c3c(N/N=C/c4ccncc4)ncnc23)c1", "assay result": 2.82}
{"record smiles": "Fc1ccc(-c2nn3ncccc3c2-c2ccnc(Nc3ccc4c(c3)OCCO4)n2)cc1", "assay result": 0.23}
